Tested on: BT-549
Assay: normalised viability (% of control), CellTiter-Blue; higher = more viable cells (about 100 = DMSO control)
Conditions: 1000 nM; incubation time: 72 h
In plain terms, low normalised viability, meaning strictly below 30%, gives True, and everything else gives False.

Is it true that normalised viability reported for CC(=O)O[C@H]1C(=O)[C@@]2(C)[C@H]([C@H](OC(=O)c3ccccc3)[C@]3(O)C[C@H](OC(=O)[C@H](O)[C@@H](NC(=O)c4ccccc4)c4ccccc4)C(C)=C1C3(C)C)[C@]1(OC(C)=O)CO[C@@H]1C[C@@H]2O [Paclitaxel] is less than 30%?
True

Is it true that normalised viability reported for Cn1c(=O)c(F)c(Nc2ccc(I)cc2F)c2c(=O)n(C[C@@H](O)CO)cnc21 [TAK-733] is less than 30%?
False

Is it true that normalised viability reported for CCCC(CCC)C(=O)O [Valproic acid] is less than 30%?
False

Is it true that normalised viability reported for COc1c(C)cnc(Cn2cnc3c(Cl)nc(N)nc32)c1C [BIIB021] is less than 30%?
False

Is it true that normalised viability reported for CN1CCN(c2ccc3nc(-c4c(N)c5c(F)cccc5[nH]c4=O)[nH]c3c2)CC1 [Dovitinib] is less than 30%?
False

Is it true that normalised viability reported for C#Cc1cccc(Nc2ncnc3cc(OC)c(OCCCCCCC(=O)NO)cc23)c1 [CUDC-101] is less than 30%?
False

Is it true that normalised viability reported for c1ccc(C2CN3CCSC3=N2)cc1 (stereo not given) [Tetramisole] is less than 30%?
False

Is it true that normalised viability reported for COC(=O)C[C@](O)(CCCC(C)(C)O)C(=O)O[C@@H]1C(OC)=C[C@]23CCCN2CCc2cc4c(cc2[C@H]13)OCO4 [Omacetaxine mepesuccinate] is less than 30%?
True

Is it true that normalised viability reported for COC1=C2C[C@@H](C)C[C@H](OC)[C@H](O)[C@@H](C)/C=C(\C)[C@H](OC(N)=O)[C@@H](OC)/C=C\C=C(/C)C(=O)NC(=CC1=O)C2=O [Geldanamycin] is less than 30%?
True
